Quick reference for growth among some compounds
# System: 786-0 renal
# MEASUREMENT DESCRIPTION: NCI-60 one-dose screen, 48 h (100 = growth as untreated, 0 = no growth, -100 = all killed)
# MEASUREMENT SETUP: 10 µM
This is part of a sample that, as a whole, favours compounds with a hit. Of some 83,000 tested, about 20% had one in any assay.
OBSERVABLE: growth (%)

1. CC(=O)Nc1cc2c(cc1Cl)Cc1cc(Cl)ccc1-2 = 112
2. NS(=O)(=O)Oc1ccc2c(ccn2C(=O)C23CC4CC(CC(C4)C2)C3)c1 = 110
3. COc1cccc(C2C(C#N)=C(N)Oc3cc(N)ccc32)c1 (stereo not drawn) = 53.9
